Origin of measurements: paper PMC9228185

test: Crossover pharmacokinetic study in rats after IV or oral MPI8 sulfonate; assay type: in vivo, Sprague-Dawley rats; conditions: male, Sprague-Dawley, in vivo; rat; oral 50 mg/kg MPI8 sulfonate; NCA; read-out: CL/F (converted)
measured-attribute: CL/F (mL/min/kg)
Report only the number, with the unit mL/min/kg understood.

Req: Form field: reported CL/F of CC(OC(C)(C)C)C(NC(=O)OCc1ccccc1)C(=O)NC(CC1CCCCC1)C(=O)NC(C=O)CC1CCNC1=O (stereo not shown)
Resp: 733

====

test: Crossover pharmacokinetic study in rats after IV or oral MPI8 sulfonate; assay type: in vivo, Sprague-Dawley rats; conditions: male, Sprague-Dawley, in vivo, iv; rat; i.v. 5 mg/kg MPI8 sulfonate; 2 min after dosing; read-out: Mean initial plasma concentration
measured-attribute: C0 at 2 min
Write the figure, then the unit, nothing else.

Req: Form field: reported C0 at 2 min of CC(OC(C)(C)C)C(NC(=O)OCc1ccccc1)C(=O)NC(CC1CCCCC1)C(=O)NC(C=O)CC1CCNC1=O (stereo not shown)
Resp: 4480 ng/mL
